Please provide measured MIC for the entries that follow.
Test system: VRSA clinical isolates
Assay: microbe, parasite or virus in culture
Format: cell-based
Details: Staphylococcus aureus, VRS7, VRSA, Michigan
Counter-ions that a name gives are not always drawn.
Answers are plain numbers, in µg/mL.

**Query** Enter MIC (test system VRSA clinical isolates) for NC1CCN(c2nc3c(cc2F)c(=O)c(C(=O)O)cn3-c2ccc(F)cc2F)C1 (stereo not shown) [TFLX, tosufloxacin tosylate]
**Result** 4

# batch: return MIC for each of the 5 compounds below
1. C[C@H]1COc2c(N3CCN(C)CC3)c(F)cc3c(=O)c(C(=O)O)cn1c23
2. C[C@@H]1CN(c2c(F)c(N)c3c(=O)c(C(=O)O)cn(C4CC4)c3c2F)C[C@H](C)N1
3. Cc1cc(=O)n(C)c2c3c4c(cc12)c(C)cc(=O)n4CO3
4. CC1COc2c(N3CCN(C)CC3)c(F)cc3c(=O)c(C(=O)O)cn1c23 (stereo not shown)
5. Cc1cc(=O)n2c3c(c4c(cc13)c(CO)cc(=O)n4C)OC2

**Result**
1. 32
2. 16
3. 0.125
4. 64
5. 0.5

###

Exercise: for every item that follows, state its recorded MIC.
Tested on: MRSA, CA-MRSA and MSSA of Staphylococcus aureus
Experiment: MIC measurement, Test Example 4 (MRSA, CA-MRSA and MSSA strains)
Assay type: cell-based
Details: Staphylococcus aureus, ISA37-1, MSSA
One number for each entry, in µg/mL.

# example entries with known answers
**Query** State its MIC: C[C@@H](O)[C@H]1C(=O)N2C(C(=O)O)=C(SCCN=CN)C[C@H]12
**Result** 0.125

**Query** Write down MIC measured for item CC1COc2c(N3CCN(C)CC3)c(F)cc3c(=O)c(C(=O)O)cn1c23 (stereo not shown)
**Result** 0.25

**Query** Give the reported value of MIC for this record: Cc1onc(-c2ccccc2)c1C(=O)N[C@@H]1C(=O)N2[C@@H]1SC(C)(C)[C@@H]2C(=O)O
**Result** 2

**Query** Note MIC for the molecule shown: C[C@@H]1CN(c2c(F)c(N)c3c(=O)c(C(=O)O)cn(C4CC4)c3c2F)C[C@H](C)N1
**Result** 0.125

**Query** Give the reported MIC for this molecule. CCn1cc(C(=O)O)c(=O)c2cc(F)c(N3CCNCC3)cc21
**Result** 1

**Query** Supply reported MIC belonging to this molecule: C[C@H]1COc2c(N3CCN(C)CC3)c(F)cc3c(=O)c(C(=O)O)cn1c23
**Result** 0.25

Now examine the next entry.
**Query** Identify MIC associated with the molecule CN[C@H](CC(C)C)C(=O)N[C@H]1C(=O)N[C@@H](CC(N)=O)C(=O)N[C@H]2C(=O)N[C@H]3C(=O)N[C@H](C(=O)N[C@H](C(=O)O)c4cc(O)cc(O)c4-c4cc3ccc4O)[C@H](O)c3ccc(c(Cl)c3)Oc3cc2cc(c3O[C@@H]2O[C@H](CO)[C@@H](O)[C@H](O)[C@H]2O[C@H]2C[C@](C)(N)[C@H](O)[C@H](C)O2)Oc2ccc(cc2Cl)[C@H]1O
**Result** 1

###

Task for the reader: assign each of the following compounds its reported log10(MIC).
Tested on: Enterococcus faecalis
Test: MIC measurement, Test Example 6 (enterococcus)
Format: cell-based
Conditions: Enterococcus faecalis, E. faecalis 36-15716, quinolone-resistant enterococci; read-out: MIC
Heads up: the numbers are on a log10 scale; they represent MIC in µg/mL.

Go through the list and state log10(MIC) for each entry.
1. C[C@H]1COc2c(N3CCN(C)CC3)c(F)cc3c(=O)c(C(=O)O)cn1c23 [LVFX, levofloxacin]
2. CC1COc2c(N3CCN(C)CC3)c(F)cc3c(=O)c(C(=O)O)cn1c23 (stereo not shown) [OFLX, ofloxacin]

**Result**
1.51
2.11

I'm hoping you can list log10(MIC) for every compound here, please.
1. Cc1cc(=O)n(C)c2c3c4c(cc12)c(C)cc(=O)n4CO3 [DNM, deoxynybomycin]
2. C[C@@H]1CN(c2c(F)c(N)c3c(=O)c(C(=O)O)cn(C4CC4)c3c2F)C[C@H](C)N1 [SPFX, sparfloxacin]
3. Cc1cc(=O)n2c3c(c4c(cc13)c(CO)cc(=O)n4C)OC2 [NM, nybomycin]

**Result**
0.60
1.81
0.00

###

Test system: VRSA clinical isolates
Assay: microbe, parasite or virus in culture
Type: cell-based
Details: Staphylococcus aureus, VRS6, VRSA, Michigan
Experimental: Each of the bacterial strains listed in Table 1-1 was shake-cultured at 37° C. overnight in 4 mL of a medium (Tryptical Soy Broth: TSB, product of Becton Dickinson and Company). FDA209P was used as a control. […] After completion of culturing, the growth of the bacteria was visually determined based on turbidity to measure MIC in each bacterial strain. […]
For each of the compounds below, state its MIC.
Give bare numbers, in µg/mL.

**Query** Look up and state reported MIC for C[C@H]1COc2c(N3CCN(C)CC3)c(F)cc3c(=O)c(C(=O)O)cn1c23 [LVFX, levofloxacin]
**Result** 32

Give MIC for all compounds that follow.
1. C[C@@H]1CN(c2c(F)c(N)c3c(=O)c(C(=O)O)cn(C4CC4)c3c2F)C[C@H](C)N1 [SPFX, sparfloxacin]
2. CC1COc2c(N3CCN(C)CC3)c(F)cc3c(=O)c(C(=O)O)cn1c23 (stereo not shown) [OFLX, ofloxacin]

**Result**
1: 16; 2: 64

###

Tested on: VISA clinical isolates of MRSA (VI-MRSA) and of MSSA (VI-MSSA)
Assay: microbe, parasite or virus in culture
Assay type: cell-based, Staphylococcus aureus
Conditions: Staphylococcus aureus, A7 (JCSC4842), VI-MRSA, Taiwan
Counter-ions that a name gives are not always drawn.
OUTCOME MEASURE: MIC (µg/mL)
Numbers only, in µg/mL.

**Query** Give MIC for the following molecule: Cc1onc(-c2ccccc2)c1C(=O)N[C@@H]1C(=O)N2[C@@H]1SC(C)(C)[C@@H]2C(=O)O
**Result** 128

**Query** Provide measured MIC value, entry: Cc1cc(=O)n2c3c(c4c(cc13)c(CO)cc(=O)n4C)OC2
**Result** 0.125

**Query** Using known records, supply MIC for CC1COc2c(N3CCN(C)CC3)c(F)cc3c(=O)c(C(=O)O)cn1c23 (stereo not drawn)
**Result** 16

Record MIC for all entries; do not skip any.
1. NC1CCN(c2nc3c(cc2F)c(=O)c(C(=O)O)cn3-c2ccc(F)cc2F)C1 (stereo not drawn) [TFLX, tosufloxacin tosylate]
2. C[C@@H]1CN(c2c(F)c(N)c3c(=O)c(C(=O)O)cn(C4CC4)c3c2F)C[C@H](C)N1
3. C[C@H]1COc2c(N3CCN(C)CC3)c(F)cc3c(=O)c(C(=O)O)cn1c23
4. CCn1cc(C(=O)O)c(=O)c2cc(F)c(N3CCNCC3)cc21
5. CN[C@H](CC(C)C)C(=O)N[C@H]1C(=O)N[C@@H](CC(N)=O)C(=O)N[C@H]2C(=O)N[C@H]3C(=O)N[C@H](C(=O)N[C@H](C(=O)O)c4cc(O)cc(O)c4-c4cc3ccc4O)[C@H](O)c3ccc(c(Cl)c3)Oc3cc2cc(c3O[C@@H]2O[C@H](CO)[C@@H](O)[C@H](O)[C@H]2O[C@H]2C[C@](C)(N)[C@H](O)[C@H](C)O2)Oc2ccc(cc2Cl)[C@H]1O

**Result**
[32, 8, 8, 32, 3]

###

Test system: VISA clinical isolates of MRSA (VI-MRSA) and of MSSA (VI-MSSA)
Assay: microbe, parasite or virus in culture
Type: cell-based, Staphylococcus aureus
Conditions: Staphylococcus aureus, BR2, VI-MRSA, Brazil
Structures can show the parent of a compound that is named as a salt.
So I've got a bunch of compounds here, and I need their MIC values.
Numbers only, in µg/mL.

**Query** Fill in reported MIC for this entry: C[C@H]1COc2c(N3CCN(C)CC3)c(F)cc3c(=O)c(C(=O)O)cn1c23
**Result** 8

**Query** Fill in MIC for record Cc1onc(-c2ccccc2)c1C(=O)N[C@@H]1C(=O)N2[C@@H]1SC(C)(C)[C@@H]2C(=O)O
**Result** 64

**Query** Write down MIC measured for item CN[C@H](CC(C)C)C(=O)N[C@H]1C(=O)N[C@@H](CC(N)=O)C(=O)N[C@H]2C(=O)N[C@H]3C(=O)N[C@H](C(=O)N[C@H](C(=O)O)c4cc(O)cc(O)c4-c4cc3ccc4O)[C@H](O)c3ccc(c(Cl)c3)Oc3cc2cc(c3O[C@@H]2O[C@H](CO)[C@@H](O)[C@H](O)[C@H]2O[C@H]2C[C@](C)(N)[C@H](O)[C@H](C)O2)Oc2ccc(cc2Cl)[C@H]1O
**Result** 4

**Query** Supply reported MIC belonging to this compound: NC1CCN(c2nc3c(cc2F)c(=O)c(C(=O)O)cn3-c2ccc(F)cc2F)C1 (centres unmarked) [TFLX, tosufloxacin tosylate]
**Result** 32

Alright, here's another compound for you.
**Query** Give recorded MIC. CC1COc2c(N3CCN(C)CC3)c(F)cc3c(=O)c(C(=O)O)cn1c23 (centres unmarked)
**Result** 64
